Recorded values, source patent US20060069132A1.

System: velvetleaf
Experimental details: Test C pre-/postemergence herbicide test
Type: in vivo, Abutilon theophrasti
Details: 250 g ai/ha; scale 0-100; preemergence
Assay metric: Plant response rating, Velvetleaf

Illustrative cases are given below, each with its answer.
>  <Compound>
CCN(C)C(=O)c1ccc(F)c(NC(=O)C2CC(C(C)(C)C)=NN2CC)c1 (racemic)

>  <Plant response rating, Velvetleaf>
100

$$$$
>  <Compound>
CCc1nn(C(C)(C)C)nc1C(=O)Nc1cccc(C(=S)N(C)C)c1

>  <Plant response rating, Velvetleaf>
100

$$$$
>  <Compound>
CCn1nc(C(C)(C)C)cc1C(=O)Nc1cccc(OC(F)F)c1

>  <Plant response rating, Velvetleaf>
45

$$$$

stdin: Please report the recorded Plant response rating, Velvetleaf for "CCNC(=O)c1cccc(NC(=O)c2sc(C(C)(C)C)nc2CC)n1" .
stdout: 0

stdin: Please report the recorded Plant response rating, Velvetleaf for "C=CCNC(=O)c1cccc(NC(=O)c2sc(C(C)(C)C)nc2CC)c1" .
stdout: 40

---

Tested on: lambsquarters
Experimental details: Test B pre-/postemergence herbicide test
Assay type: in vivo, Chenopodium album
Details: 125 g ai/ha; 0 = no effect, 100 = complete control; preemergence
Assay metric: Lambsquarters plant response rating (0 to 100 scale)
// print number alone

Illustrative cases are given below, each with its answer.
>  <Item smiles>
CCn1nc(C(C)(C)C)cc1C(=O)Nc1cccc(C(=O)N2CCCC2)n1

>  <Value>
90

$$$$
>  <Item smiles>
CCc1nn(C(C)(C)C)cc1C(=O)Nc1cc(C(=O)N(C)C)ccn1

>  <Value>
80

$$$$

API: the following record is the query input.
stdin: Please report the recorded Lambsquarters plant response rating (0 to 100 scale) for "CCc1nc(C(C)(C)C)sc1C(=O)Nc1cccc(C(=O)NCC(C)C)c1" .
stdout: 10

---

System: giant foxtail
Experimental details: Test B pre-/postemergence herbicide test
Assay type: in vivo, Setaria faberi
Details: Postemergence, 500 g ai/ha; scale 0 (no effect) to 100 (complete control)
Below, each of the molecules is paired with its reported Foxtail, Giant plant response rating value.
// print number alone

stdin: Please report the recorded Foxtail, Giant plant response rating for "CCc1nn(C(C)(C)C)nc1C(=O)Nc1cccc(C(=S)N(C)C)c1" .
stdout: 50

stdin: Please report the recorded Foxtail, Giant plant response rating for "Cc1nn(C(C)C)nc1C(=O)Nc1cc(C(=O)N(C)C)ccc1F" .
stdout: 0

stdin: Please report the recorded Foxtail, Giant plant response rating for "C#CCNC(=O)c1cccc(NC(=O)c2nn(C(C)(C)C)nc2C)c1" .
stdout: 30

stdin: Please report the recorded Foxtail, Giant plant response rating for "C=Cc1nn(C(C)(C)C)nc1C(=O)Nc1cccc(C(=O)N(C)C)c1" .
stdout: 30

stdin: Please report the recorded Foxtail, Giant plant response rating for "CCN(CC)C(=O)c1ccnc(NC(=O)c2nn(C(C)(C)C)nc2C)c1" .
stdout: 30

stdin: Please report the recorded Foxtail, Giant plant response rating for "CCN(CC)C(=O)c1cccc(NC(=O)c2nn(C(C)(C)C)nc2C)n1" .
stdout: 0

stdin: Please report the recorded Foxtail, Giant plant response rating for "CCNC(=O)c1cncc(NC(=O)c2nn(C(C)(C)C)nc2C)c1" .
stdout: 10

stdin: Please report the recorded Foxtail, Giant plant response rating for "CCN(C)C(=O)c1ccc(F)c(NC(=O)c2nn(C(C)C)nc2C)c1" .
stdout: 0
